Attribution: ChEMBL document CHEMBL1909046

Molecular target: Cytochrome P450 2C19 (Homo sapiens, UniProt P33261); note: in other assays of this panel Not Active means under 50% inhibition at 10 µM
Sequence (P33261 whole entry): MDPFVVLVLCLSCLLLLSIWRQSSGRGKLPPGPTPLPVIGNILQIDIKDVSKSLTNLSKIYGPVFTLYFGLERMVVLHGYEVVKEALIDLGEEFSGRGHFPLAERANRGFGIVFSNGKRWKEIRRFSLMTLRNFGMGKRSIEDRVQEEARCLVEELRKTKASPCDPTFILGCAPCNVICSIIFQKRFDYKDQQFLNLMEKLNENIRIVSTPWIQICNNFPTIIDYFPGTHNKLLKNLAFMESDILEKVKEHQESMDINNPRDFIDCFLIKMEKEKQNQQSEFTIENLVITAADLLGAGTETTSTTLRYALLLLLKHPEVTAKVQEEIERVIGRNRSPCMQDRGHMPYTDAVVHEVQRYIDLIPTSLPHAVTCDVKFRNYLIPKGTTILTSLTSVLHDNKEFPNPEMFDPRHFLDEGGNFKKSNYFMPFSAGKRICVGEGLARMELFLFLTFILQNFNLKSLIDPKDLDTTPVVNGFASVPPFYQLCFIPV
Conditions: bti-tn-5b1-4; note: in other assays of this panel Not Active means under 50% inhibition at 10 µM
QUANTITY KIND: Ki

Answered examples (5):
INSERT INTO results (molecule, quantity_kind, endpoint_value) VALUES
  ('CC(C)(O)c1ccccc1CC[C@@H](SCC1(CC(=O)O)CC1)c1cccc(/C=C/c2ccc3ccc(Cl)cc3n2)c1', 'Ki', 'Not Active'),
  ('CN1[C@@H]2CC[C@H]1C[C@@H](OC(=O)c1c[nH]c3ccccc13)C2', 'Ki', 'Not Active'),
  ('COc1ccc([C@@H]2Sc3ccccc3N(CCN(C)C)C(=O)[C@@H]2OC(C)=O)cc1', 'Ki', 'Not Active'),
  ('Cc1ccccc1N1CCN(CCc2nnc3n2CCCC3)CC1', 'Ki', 'Not Active'),
  ('CN(C)[C@@H]1C(O)=C(C(N)=O)C(=O)[C@@]2(O)C(O)=C3C(=O)c4c(O)cccc4[C@@](C)(O)[C@H]3[C@H](O)[C@@H]12', 'Ki', 'Not Active');

Missing value: Ki, Cytochrome P450 2C19 (Homo sapiens, UniProt P33261), entry `COC(=O)c1ccc(O)cc1` . Fill in?
Not Active

Same again, this time with `CC1(C)S[C@@H]2[C@H](NC(=O)[C@H](NC(=O)N3CCNC3=O)c3ccccc3)C(=O)N2[C@H]1C(=O)O`
Not Active

Same again, this time with `COc1ccc2c(c1)c(CC(=O)OCC(=O)O)c(C)n2C(=O)c1ccc(Cl)cc1`
Not Active

* * *

Biological target: UniProt P25100
Sequence (P25100 whole entry): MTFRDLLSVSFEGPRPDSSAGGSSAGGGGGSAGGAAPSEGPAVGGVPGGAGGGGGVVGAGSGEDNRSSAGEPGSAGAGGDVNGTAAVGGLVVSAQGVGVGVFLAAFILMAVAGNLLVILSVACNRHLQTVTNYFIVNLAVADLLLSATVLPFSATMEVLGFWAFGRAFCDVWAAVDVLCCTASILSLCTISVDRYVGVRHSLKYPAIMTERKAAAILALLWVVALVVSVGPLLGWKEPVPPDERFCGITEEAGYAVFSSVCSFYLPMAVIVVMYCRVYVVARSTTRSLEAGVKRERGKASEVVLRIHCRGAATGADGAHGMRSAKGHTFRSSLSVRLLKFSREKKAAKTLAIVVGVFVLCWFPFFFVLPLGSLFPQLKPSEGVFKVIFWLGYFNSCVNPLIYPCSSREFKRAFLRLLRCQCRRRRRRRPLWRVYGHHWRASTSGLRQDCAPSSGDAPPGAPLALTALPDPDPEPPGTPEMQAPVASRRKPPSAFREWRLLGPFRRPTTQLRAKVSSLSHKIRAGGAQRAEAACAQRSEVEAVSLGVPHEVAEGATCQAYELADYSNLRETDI
Format: cell membranes, HEK293, Membrane
Details: read-out: IC50
Please go through the items and note down their log10 IC50.
Quick note: numbers are log10 of IC50, with nM as the unit.

Look up log10 IC50: `CNCCC=C1c2ccccc2CCc2ccccc21`
2.44

Same again, this time with `COc1ccc(CCN2CCC(Nc3nc4ccccc4n3Cc3ccc(F)cc3)CC2)cc1`
2.89

Same again, this time with CSc1ccc2c(c1)N(CCC1CCCCN1C)c1ccccc1S2 (stereo not given)
0.77

Same again, this time with `CN(C)CCCN1c2ccccc2CCc2ccc(Cl)cc21`
2.26

Same again, this time with `Clc1ccccc1C(c1ccccc1)(c1ccccc1)n1ccnc1`
4.18

Same again, this time with CN1CCN2c3ccccc3Cc3ccccc3C2C1 (stereo not given)
1.92

Same again, this time with `CN1C[C@H](C(=O)N[C@]2(C)O[C@@]3(O)[C@@H]4CCCN4C(=O)[C@H](Cc4ccccc4)N3C2=O)C=C2c3cccc4[nH]cc(c34)C[C@H]21`
1.69

Same again, this time with CN(C)CCCC1(c2ccc(F)cc2)OCc2cc(C#N)ccc21 (stereo not given)
3.52

Same again, this time with `Cc1ccccc1N1CCN(CCc2nnc3n2CCCC3)CC1`
0.92

Same again, this time with CC(CCc1ccccc1)NCC(O)c1ccc(O)c(C(N)=O)c1 (stereo not given)
2.72

* * *

Biological target: Cytochrome P450 2C9 (Homo sapiens); note: in other assays of this panel Not Active means under 50% inhibition at 10 µM
Sequence (P11712 whole entry): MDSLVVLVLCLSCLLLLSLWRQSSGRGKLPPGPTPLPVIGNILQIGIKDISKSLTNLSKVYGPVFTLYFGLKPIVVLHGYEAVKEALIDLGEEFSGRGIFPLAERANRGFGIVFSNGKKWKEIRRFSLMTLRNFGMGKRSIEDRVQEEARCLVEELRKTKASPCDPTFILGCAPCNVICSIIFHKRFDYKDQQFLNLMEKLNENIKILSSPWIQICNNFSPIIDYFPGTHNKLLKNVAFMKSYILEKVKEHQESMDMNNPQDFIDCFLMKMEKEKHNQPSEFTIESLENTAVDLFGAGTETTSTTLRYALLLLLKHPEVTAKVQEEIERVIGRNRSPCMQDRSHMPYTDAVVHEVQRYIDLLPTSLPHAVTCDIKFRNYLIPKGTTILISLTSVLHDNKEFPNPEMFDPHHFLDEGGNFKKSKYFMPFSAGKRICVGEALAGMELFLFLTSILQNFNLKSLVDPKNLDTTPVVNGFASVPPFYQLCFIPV
Conditions: bti-tn-5b1-4
QUANTITY KIND: IC50

INSERT INTO measurements (compound, endpoint_value) VALUES
  ('CC1(C)S[C@@H]2[C@H](NC(=O)[C@H](N)c3ccc(O)cc3)C(=O)N2[C@H]1C(=O)O', 'Not Active'),
  ('CC[C@H]1OC(=O)[C@H](C)[C@@H](O[C@H]2C[C@@](C)(OC)[C@@H](O)[C@H](C)O2)[C@H](C)[C@@H](O[C@@H]2O[C@H](C)C[C@H](N(C)C)[C@H]2O)[C@](C)(O)C[C@@H](C)/C(=N\OCOCCOC)[C@H](C)[C@@H](O)[C@]1(C)O', 'Not Active'),
  ('NC(CO)(CO)CO', 'Not Active');
